Consider the following compounds; for each one, report its TGI.
system: SK-MEL-2 melanoma; assay: NCI tumour cell line growth inhibition, 48 h

Test system SK-MEL-2 melanoma; read-out TGI; what value for `N=C(N)c1ccc(N2CCCN(c3ccc(C(=N)N)cc3)CC2)cc1` ? > 100 µM

Record lookup: for SK-MEL-2 melanoma, what TGI belongs to CC1(CCC2C=CCC2)CCCNC1=S (stereo not drawn) ? > 10 µM

Form field - read-out: TGI; system: SK-MEL-2 melanoma; submitted item: `N#C/C(=C\c1c(-c2ccccc2)[nH]c2ccccc12)S(=O)(=O)c1ccccc1` 45.3 µM

Can you look up TGI on SK-MEL-2 melanoma for `CN(C)CCCNC(=O)N/N=C/c1cccc([N+](=O)[O-])c1` ? > 100 µM

For SK-MEL-2 melanoma, provide TGI of `Cn1c(/C=C(\O)c2ccc(Cl)cc2)nc2ccccc21` please. > 100 µM

Query the reported TGI for SK-MEL-2 melanoma; item: `CN(C)CCCNc1ccc2ncn3c4ccccc4c(=O)c1c23` 26.8 µM

Give SK-MEL-2 melanoma TGI for `CN1CCN(Cc2ccc(NC(=O)c3cncc(C#Cc4cnc(N)c5ccncc45)c3)cc2C(F)(F)F)CC1` 1.07 µM

What measured TGI is associated with `O=C1C(=O)N(c2ccc(Cl)c(Cl)c2)C(=O)C(=O)C1c1nc2ccccc2s1` on SK-MEL-2 melanoma? > 100 µM

SK-MEL-2 melanoma / TGI / `O=C1c2ccccc2-c2c1c1ccc([N+](=O)[O-])cc1c(=O)n2CCCBr` : value? > 100 µM

Find the measured TGI: item `CCCCCCc1cc(C(=O)Nc2cccc(C(F)(F)F)c2)nc(N)n1` , target or system SK-MEL-2 melanoma. > 100 µM

Item `CC1=C2C(=O)c3ccccc3C(=O)[C@H]2[C@H]2CCO[C@H]2O1` with SK-MEL-2 melanoma - TGI? 36.6 µM

Which measured TGI belongs to `CCOC(=O)/C(Cl)=C(\C)Nc1nc2c(ccc3ccccc32)s1` , tested on SK-MEL-2 melanoma? 60.1 µM

So what TGI did `CCOC(=O)c1oc2ccc(OC)c3c2c1CCC3` get with SK-MEL-2 melanoma? > 100 µM

Return TGI measured with SK-MEL-2 melanoma given this compound: C=CCc1cc(OC)c2c(c1)C(O)CC(c1ccccc1)O2 (stereo not drawn) > 100 µM

Query for SK-MEL-2 melanoma: what TGI does the record show for `CN(/N=C(\C(=O)O)c1ccccc1)C1=NCCCN1` ? > 100 µM

// lookup TGI | system=SK-MEL-2 melanoma | key= COC(=O)C1CC2(CCC1=O)Cc1ccccc1C2=O (stereo not drawn) > 100 µM

Lab note: need TGI for CC12Nc3ccccc3N1C(=O)c1ccccc12 (stereo not drawn) on SK-MEL-2 melanoma, anyone have it? > 100 µM

Provide the documented TGI with SK-MEL-2 melanoma as the system for `COc1ccc([C@@H]2ON(C)[C@H]3CN(C)C(=O)[C@@H]23)cc1` > 100 µM

Return TGI measured with SK-MEL-2 melanoma given this compound: CC1CC[C@@H](C(C)C)[C@H](Oc2nnc(C3OC(CO)C(O)C3O)o2)C1 (stereo partly drawn) > 100 µM

Checklist item: TGI tested on SK-MEL-2 melanoma, entry `O=S(=O)(Sc1ccc(Cl)cc1)c1ccc(Cl)cc1` , value? 14.5 µM

Request - read-out TGI | tested on SK-MEL-2 melanoma | compound `NNC(=O)c1ccc(-n2nnc(C(=O)NN)c2C(=O)NN)cc1` > 100 µM

Look up TGI with SK-MEL-2 melanoma for this compound: `CCOC(=O)C(=O)Nc1c(CC)cccc1C(C)C` > 100 µM

Query the reported TGI for SK-MEL-2 melanoma; item: `CS(=O)(=O)Oc1cccc(/C=N/N=C(\N)NO)c1` > 100 µM

Given the entry `O[C@H]1CO[C@H]2[C@@H]1OC[C@@H]2Oc1ccc(Nc2ccnc(Nc3ccc(O[C@H]4CO[C@H]5[C@@H]4OC[C@@H]5O)c(Cl)c3)n2)cc1Cl` , what TGI was observed with SK-MEL-2 melanoma? 5.02 µM

# value lookup — system SK-MEL-2 melanoma, readout TGI, item `COc1ccc(-c2cc(-c3ccccc3)nc(SCCCC(=O)NO)n2)cc1` 9.26 µM

API: value(readout= TGI, system= SK-MEL-2 melanoma, query= `O=C(NN1C(=O)CSC12CCCCC2)c1[nH]c2ccc(F)cc2c1-c1ccccc1` ) > 100 µM

API: value(readout=TGI, system=SK-MEL-2 melanoma) for record `Cc1ccc(NC(=O)/C=C/c2ccccc2)c(C(N)=O)c1` 31.6 µM

// fetch SK-MEL-2 melanoma TGI for `C[C@@H]1CC[C@H]2C(COCCOCC3=C(C(F)(F)F)O[C@@H]4O[C@@]5(C)CC[C@H]6[C@H](C)CC[C@@H]3[C@@]46OO5)=C(C(F)(F)F)O[C@@H]3O[C@@]4(C)CC[C@@H]1[C@]32OO4` > 100 µM

###

test system: A549 NSCLC; experiment: NCI tumour cell line growth inhibition, 48 h
measuredParameter: TGI

# TGI lookup, item `CC1=NN(c2ccccc2)C(=O)/C1=C/c1ccc(O)cc1` > 100 µM

Requested field: TGI. Item: `NCCCN(CCCCN(CCCN)Cc1ccc2ccccc2c1)Cc1ccc2ccccc2c1` 3.2 µM

Give the measured TGI of `CN(C)c1ccc(/C=C\c2cccc[n+]2C)cc1` . > 100 µM

Form field: reported TGI of `CN(C)c1ccc(N=Nc2ccc3nc[nH]c3c2)cc1` > 100 µM

// returns reported TGI for input O=NC1C(Cl)C2CC1C1C(Br)C(Br)CC21 (stereo not drawn) > 100 µM

Returns the measured TGI for the input molecule. Input: N#CC(C(=O)CCC(=O)Nc1cccc(Cl)c1)c1ccccc1 (stereo not drawn) > 100 µM

Bench note: what TGI did CC1=C(N2CC2)C(=O)c2nc3n(c2C1=O)CCC3OC(=O)CCl (stereo not drawn) show? 0.169 µM

What value of TGI has been recorded for this entry: `N#C/C(=C\c1c(-c2ccccc2)[nH]c2ccccc12)S(=O)(=O)c1ccccc1` > 100 µM

Tell me the measured TGI of COc1ccc(N2C(=O)C3c4[nH]c5c(C)cccc5c4C4CCC(C(C)(C)C)CC4C3C2=O)cc1 (stereo not drawn) , please. > 10 µM

Quick one: TGI of `O=C(N/N=C/c1ccc2c(c1)CCC2)c1ccccc1O` ? 57.5 µM

Item under review: `COc1ccc2cc(-c3ccoc(=O)c3-c3cc(OC)c(OC)c(OC)c3)ccc2c1` . Reported TGI? > 100 µM

Please report the recorded TGI for `COc1cc2c(c(OC)c1OC)-c1ncc3cc(OC)c(OC)c(OC)c3c1C2` . > 100 µM

Entry under review: `COc1ccc(NC(=O)/C(=N\NC(=O)C[n+]2ccccc2)c2c(O)c3ccc(O)cc3oc2=O)c([N+](=O)[O-])c1` . Reported TGI? > 100 µM

###

system: NCI/ADR-RES ovarian; test: NCI tumour cell line growth inhibition, 48 h
Please respond with reported TGI for every item in the list.

Report TGI for CSc1nc(N)c(NC2OC(CO)C(O)C2O)c(=O)[nH]1 (stereo not drawn) tested on NCI/ADR-RES ovarian. > 100 µM

Recorded TGI for `C=CC(=O)N1CCN(c2ccc3cccc(NC(=O)c4cnc(C)cn4)c3n2)CC1` with NCI/ADR-RES ovarian, please? > 100 µM

Field: TGI (NCI/ADR-RES ovarian). Entry: `NC(N)=N/N=C/c1c(-c2ccccc2)nc2n1ccc1nc(-c3ccccc3)c(/C=N/N=C(N)N)n12` > 100 µM

###

Please provide measured TGI for the entries that follow.
system: M14 melanoma; assay: NCI tumour cell line growth inhibition, 48 h

# input molecule: `O=C(/C(=C/c1ccc([N+](=O)[O-])cc1)c1ccccc1)c1ccccc1` ; wanted: its TGI > 100 µM

So what's the measured TGI for this one? CCOC1(COP(=O)(OCc2ccccc2)OCc2ccccc2)COC(COP(=O)(OCc2ccccc2)OCc2ccccc2)(OCC)CO1 (configuration not stated) > 100 µM

For the molecule shown here, `C=C1CC[C@@H]2[C@](C)(COC(C)=O)[C@@H](O)CC[C@@]2(C)[C@@H]1COc1ccc2ccc(=O)oc2c1` , give the reported TGI. > 100 µM

TGI lookup needed for `COc1cc2c(c(OC)c1OC)-c1ncc3cc(OC)c(OC)c(OC)c3c1C2` , thanks. > 100 µM

I am curious: what TGI value has been reported for `COc1ccc(NC(=O)C/C(C)=N\N=C(N)N)c([N+](=O)[O-])c1` ? > 100 µM

Look up TGI for this molecule: `C1=NCCNCCN=Cc2ccc(cc2)OCc2cccc(n2)COc2ccc1cc2` > 100 µM

Look up TGI: `Cn1c(/C=C(\O)c2ccc(Cl)cc2)nc2ccccc21` > 100 µM

// TGI lookup, key: `COc1ccc2cc(-c3ccoc(=O)c3-c3cc(OC)c(OC)c(OC)c3)ccc2c1` > 100 µM

Give the measured TGI of `CCCn1c(C)nc2c1C(=O)c1ccccc1C2=O` . > 100 µM

# query: TGI of entry `O=c1cc(-c2cccc(Cl)c2)[nH]c2ncccc12` > 100 µM

Look at this molecule and give its reported TGI. CC12CCC(C(=O)OC1=O)C(C)(C)O2 (configuration not stated) > 100 µM

For the molecule shown here, `COc1ccc([C@@H]2ON(C)[C@H]3CN(C)C(=O)[C@@H]23)cc1` , give the reported TGI. > 100 µM
